Origin of values: ChEMBL document CHEMBL5380843

Reported log10 EC50 values for the following compounds.
# System: Human immunodeficiency virus 1
# method summary: Antiviral activity against wild type HIV-1 IIIB harboring reverse transcriptase […] mutant infected in human MT4 cells assessed as protection against virus-induced cytopathic effect incubated for 5 days by MTT assay
# Format: functional, organism-based
# experimental context: Human immunodeficiency virus 1, IIIB, MT4, 120 h
measured parameter: log10 EC50 (log10 of the value in nM)

> print(dat)
                                smiles.text  result.number
1  Cc1cc(-c2ccc(C#N)cc2)cc(C)c1Oc1nc(Nc2ccc(C#N)cc2)ncc1C(=O)NCCO           1.11
2  Cc1cc(-c2ccc(C#N)cc2)cc(C)c1Oc1nc(Nc2ccc(C#N)cc2)ncc1C(=O)NC1CCCCC1           3.23
3  COc1cc(-c2ccc(C#N)cc2)ccc1Oc1nc(Nc2ccc(C#N)cc2)ncc1C(N)=O           0.78
4  Cc1cc(-c2ccc(C#N)cc2)cc(C)c1Oc1nc(Nc2ccc(C#N)cc2)ncc1C(N)=O           1.34
5  CCNC(=O)c1cnc(Nc2ccc(C#N)cc2)nc1Oc1c(C)cc(-c2ccc(C#N)cc2)cc1C           1.40
